GI50 listing for selected molecules.
- Test system: M14
- TEST METHOD NOTES: NCI tumour cell line growth inhibition, 48 h
Activity calls are given as the source filed them. No stated cut-off is given here; in the data, active = GI50 up to about 1.1 µM and inactive = higher.

Consider the following illustrative entries.
MOLECULE: CC(=O)Oc1ccc(CO)cc1OC(C)=O
REPORTED: > 100 µM (inactive)

MOLECULE: COC(=O)C1=C(O)C(C(=O)OC)[C@]2(O)[C@H](C(=O)OC)[C@H]1C[C@@H](c1ccc(C(F)(F)F)cc1)[C@H]2C(=O)OC (some centres undefined)
REPORTED: 3.81 µM (inactive)

MOLECULE: COc1ccc(N2C(=O)/C(=C\c3cc(OC)c(OC)c(OC)c3)SC2c2ccccc2)cc1 (centres undefined)
REPORTED: 55.7 µM (inactive)

MOLECULE: COC(=O)CCC(=O)NC1c2cccc3cccc(c23)Cn2c(=O)n(C)c(=O)n21 (centres undefined)
REPORTED: > 100 µM (inactive)

MOLECULE: N=C(N)Nc1ccc(CC(N)C(=O)O)cc1 (centres undefined)
REPORTED: > 12.5 µM (inactive)

Query (molecule): CN(C)c1ccc(/C=c2\sc3nnc(-c4cccnc4)n3c2=O)cc1 ; field requested: GI50
> 100 µM (inactive)

Query (molecule): CC(=O)OCC12CCC3C4(C)CCCC(C)(C)C4CCC3(C)C1CC(C1=CC(=O)OC1O)O2 (centres undefined) ; field requested: GI50
1.42 µM (inactive)

Query (molecule): CC(C#N)NCc1ccc(C(C)NC(C)C#N)cc1 (centres undefined) ; field requested: GI50
> 100 µM (inactive)

Query (molecule): CN(C)c1ccc(/C=N/CC2CCCN3CCCCC23)cc1 (centres undefined) ; field requested: GI50
> 100 µM (inactive)

Query (molecule): C=C1[C@H]2O[C@H]2[C@@H](OC(C)=O)[C@@]2(C)[C@@H](OC(C)=O)C[C@@H](OC(=O)CCC)[C@@](C)(O)[C@@H]2[C@@H](OC(C)=O)[C@]2(O)[C@@H](C)C(=O)O[C@H]2[C@H]1Cl ; field requested: GI50
> 100 µM (inactive)

###

GI50 listing for selected molecules.
- System: UACC-257
- TEST METHOD NOTES: NCI tumour cell line growth inhibition, 48 h
Activity calls are given as the source filed them. Rule as the data show it: active = GI50 up to about 1.1 µM and inactive = higher.

Consider the following illustrative entries.
MOLECULE: O=c1[nH]n(CCc2ccccc2CCl)c2ccc([N+](=O)[O-])cc12
STUDY TARGET: UACC-257
GI50: 70.6 µM (inactive)
//
MOLECULE: Fc1ccc(C(OCCN2CCC3CCC(C2)N3CCCc2ccccc2)c2ccc(F)cc2)cc1 (stereo not given)
STUDY TARGET: UACC-257
GI50: 2.92 µM (inactive)
//
MOLECULE: NCC[Se][Se]CCN
STUDY TARGET: UACC-257
GI50: 7.06 µM (inactive)
//
MOLECULE: O=C1OCN(c2ccccc2)C12CCN(Cc1ccccc1)CC2
STUDY TARGET: UACC-257
GI50: 16.7 µM (inactive)
//
MOLECULE: CC(=O)O[C@H]1CC[C@H]2[C@@H]3CCC4=C(C(=O)C=CC4(C)OC(C)=O)[C@H]3CC[C@]12C (stereo not given in full)
STUDY TARGET: UACC-257
GI50: > 100 µM (inactive)
//
MOLECULE: COC(=O)c1sc(C(=O)OC)c2c1CSC2
STUDY TARGET: UACC-257
GI50: > 100 µM (inactive)
//
MOLECULE: C/C=C1/CN2CCC34C5=CC(=O)C(c6cc7c(cc6OC)N(C)C6=C(C(=O)OC)CC8(CC)CCCN9CCC67C98)=CC5=NC23CCC1C4C(=O)OC (stereo not given)
STUDY TARGET: UACC-257
GI50: 14 µM (inactive)
//
MOLECULE: C=C(CO)C(=O)OC1CC(=C)C2CC(O)C(C)C2C2OC(=O)C(=C)C12 (stereo not given)
STUDY TARGET: UACC-257
GI50: 15.6 µM (inactive)
//
MOLECULE: CCOC(=O)/C=C(\C(=O)OCC)n1cc(C)c(=O)n(Cc2cn(COCCOC(C)=O)nn2)c1=O
STUDY TARGET: UACC-257
GI50: 17.4 µM (inactive)

Here's the next entry for you.
Query (molecule): COc1ccc(C2=C(N)c3cc(OC)ccc3C2=O)cc1 ; field requested: GI50
> 100 µM (inactive)
